Below, each of the compounds is paired with its reported melting point value.

Notebook: O=C(OCc1ccccc1)C(C(=O)OCc1ccccc1)c1ncc(C(F)(F)F)cc1[N+](=O)[O-] , melting point read as 82 to 84 °C

Notebook: CC(C)(C)C(F)(F)c1ccc(C[C@H]2NC(=O)O[C@H]2c2cccc(Cl)c2)cc1 (racemic) , melting point read as 188 to 190 °C

Notebook: CCCC(=O)OCc1ccc2oc(=O)c(C(=O)Oc3cncc(Cl)c3)cc2c1 , melting point read as 146 to 148 °C

* * *

Below, each of the compounds is paired with its reported melting point value.

Notebook: CC(C)Oc1cc(CCCOc2c(CC(=O)O)ccc3ccccc23)n(Cc2ccc(Cl)cc2Cl)n1 , melting point read as 96 to 98 °C
